- procedure_summary: anti-His antibody binders, primary screen, artefact control for SMM control protein annotation, biochemical, small-molecule microarray, 635 nm fluorescence (AID 1128);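 note: score merges feature fluorescence with signal-to-noise for each printed compound spot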
- assay_conditions: anti-His Alexa647 antibody binding, higher = more signal
Mark 0.0 for composite z-score values under 0.5, and 1.0 for everything at or above.

The following compounds have reported results that may help.
[
  {
    "compound": "CCOC(=O)C1=CC[C@@H](c2ccccc2Cl)N(S(=O)(=O)c2ccc(C)cc2)[C@H]1c1cccc(OC)c1",
    "discrete_label": 0.0
  },
  {
    "compound": "CCOC(=O)C[C@H]1[C@H](OC(=O)Cc2ccc3c(c2)OCO3)[C@@H](NC(=O)c2ccccc2)c2cc(OCCCO)ccc2N1C(=O)Cc1ccc(OC)cc1",
    "discrete_label": 1.0
  },
  {
    "compound": "C=CC[C@@]12N=C(c3ccc(OCCCO)cc3)O[C@@H]1c1ccccc1N(Cc1ccccc1)C2=O",
    "discrete_label": 1.0
  }
]

Switching to the query record.
Say whether CCCCCCCCCCC(O)C1C=CC2C(=O)N(C)C(=O)C2N1N1CCCCC1 (stereo not given) shows composite z-score of 0.5 or more. 0.0

###

The compounds listed here are annotated with their composite z-score.
- target_entity: Streptavidin (Streptomyces avidinii)
- procedure_summary: streptavidin binders on small-molecule microarray, primary screen, artefact control for SMM compound annotation, biophysical, 635/667 nm fluorescence (AID 1147);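 note: signal reflects streptavidin binding to arrayed compounds as a control protein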
- assay_conditions: streptavidin binding, higher = more signal

Reference set, count: 2
[
  {
    "compound": "CCCCC(O)C1C=CC2C(=O)N(C)C(=O)C2N1Nc1ccccc1 (stereo not drawn)",
    "composite z-score": 0.264
  },
  {
    "compound": "COc1cccc(OC)c1C(=O)O[C@H]1[C@@H]2OC(=O)[C@H](Cc3cccc(Br)c3)C/C=C/C[C@@H](Cc3cccc(Br)c3)C(=O)O[C@H]2[C@@H](OC)O[C@@H]1CO",
    "composite z-score": -0.114
  }
]

Given the compound C=C(COC)/C(=C/C[C@@H](OC(C)=O)c1ccccc1OCCO)c1cc(C(=O)OC)ccc1OC , what is its reported composite z-score? -0.333

Given the compound C=CC[C@@]12N=C(c3ccc(OCCCO)cc3)O[C@@H]1c1ccccc1N(Cc1ccccc1)C2=O , what is its reported composite z-score? 0.25

Given the compound COc1ccccc1CN1C(=O)c2ccccc2[C@@H](C(=O)NCCCN(C)C)[C@@H]1c1ccc(CO)cc1 , what is its reported composite z-score? -0.523

Given the compound O=C1NC(=O)C2C1C=CC(C(O)c1cccc(O)c1)N2Nc1ccc(Cl)cc1Cl (stereo not drawn) , what is its reported composite z-score? 0.423

Given the compound CC(C)CNC(=O)[C@@H]1c2ccccc2C(=O)N(Cc2ccccc2Cl)[C@H]1c1ccc(CO)cc1 , what is its reported composite z-score? -0.222

Given the compound COC(=O)[C@@]1(Cc2ccccc2)[C@@H]2[C@@H](CC(=O)[C@H]2CC(=O)C(=O)N(C)C)CN1C(=O)c1ccccc1 , what is its reported composite z-score? 0.315

###

- Test system: XIP peptide (Xip251-270)
- procedure_summary: small-molecule binders of XIP peptide, primary screen, biochemical, small-molecule microarray, fluorescence 635/667 nm, 0.5 µg/mL protein (AID 1183)
- assay_conditions: small-molecule microarray binding, fluorescence 635 nm; higher = more signal
Mark False for composite z-score values under 0.1, and True for everything at or above.

The following compounds have reported results that may help.
[
  {
    "compound": "CCOC(=O)C[C@H]1[C@H](OC(=O)c2ccc(-c3ccccc3)cc2)[C@@H](NC(=O)CC(C)C)c2cc(OCCCO)ccc2N1C(=O)Cc1ccc(OC)cc1",
    "target_entity": "XIP peptide (Xip251-270)",
    "discrete_label": "False"
  },
  {
    "compound": "CO[C@H]1O[C@H](CO)[C@@H](OC(=O)Nc2ccccc2)[C@@H]2OC(=O)[C@H](Cc3ccccc3)C/C=C/C[C@@H](Cc3ccccc3)C(=O)O[C@@H]12",
    "target_entity": "XIP peptide (Xip251-270)",
    "discrete_label": "True"
  },
  {
    "compound": "COc1ccc([Si](C)(C)[C@H]2[C@H](CCO)O[C@@]3(C(=O)N(Cc4ccc(N5CCOC5=O)cc4)c4ccccc43)[C@@H]2C)cc1",
    "target_entity": "XIP peptide (Xip251-270)",
    "discrete_label": "True"
  },
  {
    "compound": "CCCC[C@@H]1C[C@H]1[C@@H](NC(=O)c1ccc(C(F)(F)F)cc1)c1ccc(C(=O)OC)cc1",
    "target_entity": "XIP peptide (Xip251-270)",
    "discrete_label": "True"
  },
  {
    "compound": "C=CCNC(=O)[C@@H]1[C@H]2C(=O)O[C@H](c3ccccc3)[C@H](c3ccccc3)N2[C@H](c2ccccc2OCCO)[C@@]12C(=O)N(C(=O)OCCOC)c1ccc(C#CCCO)cc12",
    "target_entity": "XIP peptide (Xip251-270)",
    "discrete_label": "True"
  },
  {
    "compound": "CCCCC(=C=CC[C@@H](O)c1cccc(OCCO)c1)CCO",
    "target_entity": "XIP peptide (Xip251-270)",
    "discrete_label": "True"
  },
  {
    "compound": "COCCOC(=O)N1C(=O)[C@@]2(c3cc(C#CCCO)ccc31)[C@H](c1ccccc1OCCO)N1[C@H](c3ccccc3)[C@H](c3ccccc3)OC(=O)[C@H]1[C@@H]2C(=O)N1CCc2cc(OC)c(OC)cc2C1",
    "target_entity": "XIP peptide (Xip251-270)",
    "discrete_label": "True"
  },
  {
    "compound": "C=C(CCCC)C(=O)CC[C@H](OC(=O)c1cccnc1)c1ccc(CO)o1",
    "target_entity": "XIP peptide (Xip251-270)",
    "discrete_label": "True"
  },
  {
    "compound": "CCCCC(=C=CC[C@@H](O)c1ccc(OCCO)cc1)C[C@@H](O)c1ccccn1",
    "target_entity": "XIP peptide (Xip251-270)",
    "discrete_label": "False"
  },
  {
    "compound": "COC(=O)[C@@]1(CCS(=O)(=O)c2ccccc2)N=C(c2ccc(OCCCO)cc2)O[C@H]1c1ccccc1N=[N+]=[N-]",
    "target_entity": "XIP peptide (Xip251-270)",
    "discrete_label": "True"
  }
]

Say whether NC(=O)NCC#Cc1ccc2c(c1)[C@]1(C(=O)N2)[C@H](C(=O)Nc2nc3ccccc3s2)[C@H]2C(=O)O[C@H](c3ccccc3)[C@H](c3ccccc3)N2[C@@H]1c1ccc(OCCO)cc1 shows composite z-score of 0.1 or more. False

Say whether COCCCNC(=O)[C@@H]1c2ccccc2C(=O)N(Cc2cc(C(F)(F)F)cc(C(F)(F)F)c2)[C@H]1c1ccc(CO)cc1 shows composite z-score of 0.1 or more. False

Say whether COc1ccccc1CN1C(=O)c2ccccc2[C@](Cc2ccccc2I)(C(=O)NCCCN(C)C)[C@@H]1c1ccc(CO)cc1 shows composite z-score of 0.1 or more. True
